Biological target: UniProt:O14939
Sequence (O14939 whole entry): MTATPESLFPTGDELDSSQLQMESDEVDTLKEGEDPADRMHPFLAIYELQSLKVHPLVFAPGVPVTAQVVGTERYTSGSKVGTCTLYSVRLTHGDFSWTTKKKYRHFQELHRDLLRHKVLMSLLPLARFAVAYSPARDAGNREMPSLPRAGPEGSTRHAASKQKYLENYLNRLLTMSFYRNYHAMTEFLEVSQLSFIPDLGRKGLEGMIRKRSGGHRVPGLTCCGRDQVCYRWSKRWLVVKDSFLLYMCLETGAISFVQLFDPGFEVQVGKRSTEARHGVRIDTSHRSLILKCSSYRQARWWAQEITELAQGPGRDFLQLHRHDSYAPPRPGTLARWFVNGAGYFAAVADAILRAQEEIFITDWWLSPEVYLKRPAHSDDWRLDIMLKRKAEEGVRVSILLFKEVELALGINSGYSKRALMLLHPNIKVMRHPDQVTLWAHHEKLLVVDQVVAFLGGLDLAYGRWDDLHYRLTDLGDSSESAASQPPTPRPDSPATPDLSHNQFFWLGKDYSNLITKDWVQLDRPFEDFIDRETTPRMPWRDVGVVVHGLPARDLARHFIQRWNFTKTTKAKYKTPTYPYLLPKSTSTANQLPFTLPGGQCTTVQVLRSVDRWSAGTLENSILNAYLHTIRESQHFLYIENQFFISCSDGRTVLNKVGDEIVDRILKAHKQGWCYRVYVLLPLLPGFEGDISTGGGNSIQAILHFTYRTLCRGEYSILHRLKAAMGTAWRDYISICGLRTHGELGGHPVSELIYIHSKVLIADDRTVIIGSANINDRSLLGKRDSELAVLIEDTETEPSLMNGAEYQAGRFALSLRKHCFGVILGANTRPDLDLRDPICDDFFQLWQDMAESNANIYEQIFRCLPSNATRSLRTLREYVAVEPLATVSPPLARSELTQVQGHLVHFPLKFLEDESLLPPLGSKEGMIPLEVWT
Assay: Evaluation of human PLD2 enzyme inhibitory activity (Amplex Red / choline oxidase fluorescence)
Format: biochemical
Details: read-out: inhibition rate of PLD2 at 10 μM compound
experimental endpoint: inhibition at 10 µM (%)
Return type: number; implicit unit %.

Consider the following illustrative entries.
{"columns": ["compound", "inhibition at 10 µM, %"],
 "data": [
  ["C[C@@H](C[C@H]1CC[C@]2(CC1)OC(=O)NN=C2c1cc(C#N)ccc1Br)NC(=O)C(=O)O [Example 2-171]", 23],
  ["C[C@@H](CN1CCC2(CC1)OC(=O)NN=C2c1cc(C#N)ccc1Br)NC(=O)/C=C\\C(=O)O [Example 2-047]", 34],
  ["CNC(=O)C(=O)N[C@@H](C)C[C@]1(C#N)CC[C@@]2(CC1)OC(=O)N(C)N=C2c1cc(C#N)ccc1Br [Example 2-112]", 39]
]}

Prompt: Query: inhibition at 10 µM; subject: C[C@@H](C[C@]1(C#N)CC[C@@]2(CC1)OC(=O)NN=C2c1cc(OCC(F)F)ncc1Br)NC(=O)C(=O)NC1CC1 [Example 2-101]
Completion: 28
